# system_name: hAxl/IFN-γR1 (Homo sapiens, UniProt P30530)
# Construct: containing human Axl extracellular domains and transmembrane and intracellular domains of human IFN-γR1; human IFN-γR1 transmembrane and intracellular domains (fusion partner); expressed in transfected cells
# Sequence (P30530 26-451 limits assumed): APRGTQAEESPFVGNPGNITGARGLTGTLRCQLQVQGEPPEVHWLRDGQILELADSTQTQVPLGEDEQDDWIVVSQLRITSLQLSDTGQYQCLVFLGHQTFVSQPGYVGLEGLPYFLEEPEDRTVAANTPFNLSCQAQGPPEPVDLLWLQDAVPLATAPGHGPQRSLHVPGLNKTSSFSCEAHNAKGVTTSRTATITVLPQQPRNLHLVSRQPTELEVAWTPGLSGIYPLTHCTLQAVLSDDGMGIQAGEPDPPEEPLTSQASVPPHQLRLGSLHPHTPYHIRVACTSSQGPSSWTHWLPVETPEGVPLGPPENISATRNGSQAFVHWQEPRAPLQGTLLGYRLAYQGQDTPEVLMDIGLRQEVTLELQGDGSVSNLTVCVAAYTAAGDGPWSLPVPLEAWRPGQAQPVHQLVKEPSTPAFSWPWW
# experimental_protocol: hAxl/IFN-γR1 CHO reporter cell line assay, Gas6-induced activation (pSTAT1 immunoblot)
# Type: cell-based
metric: remaining activity at 10 µM (%)

Previously resolved entries follow.
Cc1cc(CSc2ccccc2C(=O)NCCNc2nc3cc(C(F)(F)F)ccc3s2)on1 : 33
Cc1noc(C)c1CSc1ccccc1C(=O)N1CCN(Cc2cccs2)CC1 : 20
Cc1cc(CSc2ncccc2C(=O)N2CCN(CC(=O)Nc3cccc(C)c3C)CC2)no1 : 80
O=C(c1ccccc1SCc1cccs1)N1CCN(Cc2ccncc2)CC1 : 40
Cc1cc(CSc2ccccc2C(=O)N2CCN(Cc3nc4ccccc4s3)CC2)no1 : 20

(a) Cc1cc(CSc2ccccc2C(=O)N2CCN(Cc3ccc4c(c3)CCO4)CC2)no1
(b) Cc1cc(CSc2ccccc2C(=O)N2CCN(Cc3nc4cc(Cl)ccc4s3)CC2)no1
Kindly identify the item with the lower remaining activity at 10 µM figure among these two: a and b Answer = label. b

(a) Cc1cc(CSc2ccccc2C(=O)NCCNc2nc(C(F)(F)F)cs2)on1
(b) O=C(c1ccccc1SCc1ccsc1)N1CCN(Cc2ccncc2)CC1
Exercise: compare a and b ; which one has the greater remaining activity at 10 µM? Answer = label. b

Source listed as patent US10851096B2.
